Target: H5N1 NA (A/Anhui/1/2005) (Influenza A virus (A/Anhui/1/2005(H5N1)))
Assay Text: biochemical
Measurement Setup: read-out: % Inhibition ± SE H5N1 NA
Decision: inhibition at 100 µg/mL >= 20% yields 1.0, all other cases yield 0.0.

**Q:** For this molecule, is measured inhibition at 100 µg/mL 20% or higher? O=C(/C=C/c1ccc(F)cc1)c1ccc(OCc2ccccc2)cc1 [Compound 3b]
**A:** 0.0

**Q:** Now give it for COc1cc(C=O)ccc1O [Vanillin, reference compound] too.
**A:** 1.0

**Q:** Now give it for O=C(/C=C/c1ccc(F)cc1)c1ccc(O)cc1 [Compound 1a] too.
**A:** 1.0

**Q:** Now give it for O=C(O)c1ccc(/C=C/C(=O)c2ccc(O)cc2)cc1 [Compound 3a] too.
**A:** 1.0

**Q:** Now give it for CC(C)Oc1ccc(C(=O)/C=C/c2ccc(F)cc2)cc1 [Compound 1b] too.
**A:** 0.0

**Q:** Now give it for O=C(/C=C/c1ccc([N+](=O)[O-])cc1)c1ccc(OC2CCCC2)cc1 [Compound 4b] too.
**A:** 0.0

**Q:** Now give it for O=C(/C=C/c1ccc([N+](=O)[O-])cc1)c1ccc(O)cc1 [Compound 2a] too.
**A:** 1.0

**Q:** Now give it for COc1cc(/C=C/C(=O)c2ccc(O)cc2)ccc1OCc1ccccc1 [Compound 3c] too.
**A:** 0.0

meta.source: paper PMC8445792
